target: Potassium voltage-gated channel subfamily KQT member 2 (Rattus norvegicus) (UniProt O88943); assay: KCNQ2 potentiation in CHO cells – cell-based, FluxOR thallium flux, counter-screen for hERG block protector project, confirmation (AID 1942); conditions: FluxOR thallium flux fluorescence, at 10 µM;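 note: normalized value minus buffer-control mean plus three SD of buffer wells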
Sequence (O88943 whole entry, looked up): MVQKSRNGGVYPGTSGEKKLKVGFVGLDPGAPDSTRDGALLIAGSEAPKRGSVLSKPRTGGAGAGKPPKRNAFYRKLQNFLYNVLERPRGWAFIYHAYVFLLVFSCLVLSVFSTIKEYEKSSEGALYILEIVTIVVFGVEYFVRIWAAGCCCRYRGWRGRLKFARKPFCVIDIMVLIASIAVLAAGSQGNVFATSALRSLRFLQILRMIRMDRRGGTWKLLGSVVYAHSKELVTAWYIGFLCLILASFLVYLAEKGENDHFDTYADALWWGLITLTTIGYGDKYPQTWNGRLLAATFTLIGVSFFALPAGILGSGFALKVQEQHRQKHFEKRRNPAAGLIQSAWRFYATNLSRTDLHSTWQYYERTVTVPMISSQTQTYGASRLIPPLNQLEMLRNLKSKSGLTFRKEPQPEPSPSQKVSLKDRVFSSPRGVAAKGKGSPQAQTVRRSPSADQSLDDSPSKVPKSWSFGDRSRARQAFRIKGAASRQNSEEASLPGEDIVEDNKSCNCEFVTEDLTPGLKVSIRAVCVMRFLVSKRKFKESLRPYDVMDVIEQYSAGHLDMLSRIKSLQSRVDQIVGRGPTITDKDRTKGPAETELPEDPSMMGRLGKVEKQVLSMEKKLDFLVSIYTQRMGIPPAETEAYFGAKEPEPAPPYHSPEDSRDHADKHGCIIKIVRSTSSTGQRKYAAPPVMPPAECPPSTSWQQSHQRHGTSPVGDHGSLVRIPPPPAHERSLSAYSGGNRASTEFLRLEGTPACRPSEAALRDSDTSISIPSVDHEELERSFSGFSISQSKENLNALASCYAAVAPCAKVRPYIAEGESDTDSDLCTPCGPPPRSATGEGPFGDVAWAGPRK
Out of some 2,400 compounds screened, about 580 (24%) were called active.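 Rule for the calls: active = activity change at or above the mean plus 3 SD of buffer wells without dofetilide, per plate; inactive = the rest.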 Only a sample is shown.
Respond only with the outcome that fits, drawn from yes (active), no (inactive)

Answered cases to consult:
- COMPOUND: "Cc1cccc(/N=C/c2sc3ccccc3c2O)n1"
  GROUP: "no"
- COMPOUND: "NC(=O)Cn1nnc(-c2ccc(CN3CCCCC3)cc2)n1"
  GROUP: "no"
- COMPOUND: "CNC(=O)c1cc(C(=O)c2ccc(F)cc2C(F)(F)F)c[nH]1"
  GROUP: "no"
- COMPOUND: "O=C(NNC(=S)Nc1ccccc1)c1cccc(S(=O)(=O)N2CCOCC2)c1"
  GROUP: "no"
- COMPOUND: "Fc1ccc(-n2cc(-c3ccccc3)c3c(=S)nc[nH]c32)cc1"
  GROUP: "no"

Query: Could you check what this test reported for S=c1[nH]cnc2scc(-c3ccc(Cl)cc3)c12 ?
Response: yes

Query: COc1ccccc1Nc1nnc(SCC(=O)Nc2nc(-c3ccc(F)cc3)cs2)s1 ?
Response: no

Query: COc1cccc2sc(Nc3nc(-c4ccccn4)cs3)nc12 ?
Response: yes

Query: c1ccc(-c2ccnc3nc(N4CCN(c5ccccc5)CC4)nn23)cc1 ?
Response: no

Query: CCC(C)NC(=O)c1c(-c2cc(Cl)c(OC)c(Cl)c2)noc1C (stereo unspecified) ?
Response: no

Query: Cc1cc(C)n2nc(SCC(=O)NC3CCCCC3C)nc2n1 (stereo unspecified) ?
Response: no

Query: Cn1cc(/C=N/n2cnc3scc(-c4ccc(Cl)cc4)c3c2=O)c2ccccc21 ?
Response: no

Query: O=C(CN1CCN(c2ccc(Cl)cc2)CC1)Nc1ccc(F)cc1 ?
Response: no

Query: CCCNC(=O)N1CCN(S(=O)(=O)c2ccc(C)cc2)CC1 ?
Response: no

Query: Cc1c(C(=O)N/N=C/c2ccccn2)nnn1-c1nonc1N ?
Response: no

Query: Brc1ccc(C2=CC(c3ccco3)n3nnnc3N2)cc1 (stereo unspecified) ?
Response: no

---

target: Potassium voltage-gated channel subfamily KQT member 2 (Rattus norvegicus); experiment: KCNQ2 potentiation in CHO cells – cell-based, FluxOR thallium flux, counter-screen for hERG block protector project, confirmation (AID 1942); settings: FluxOR thallium flux fluorescence, at 10 µM, active compounds read high;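 note: normalized value minus buffer-control mean plus three SD of buffer wells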
Out of some 2,400 compounds screened, about 580 (24%) were called active. Only a sample is shown.
Record 1.0 whenever activity change, less the hit threshold is at -10% or higher; record 0.0 when lower.

Answered cases to consult:
- SMILES REPR: "Cn1c2ccccc2c(=O)c2c(=O)n(Cc3ccco3)c(-c3ccc(Cl)cc3Cl)nc21"
  GROUP: 0.0
- SMILES REPR: "O=C(NC(=S)Nc1ccccc1)c1cncc(C#Cc2ccccc2)c1"
  GROUP: 0.0
- SMILES REPR: "COc1ccccc1C(=O)Nc1ccnn1C1CCN(C(=O)c2ccoc2C)CC1"
  GROUP: 0.0
- SMILES REPR: "COc1ccc(S(=O)(=O)N2CCN(C(=O)CNC(=O)c3ccc4c(c3)OCO4)CC2)cc1"
  GROUP: 0.0
- SMILES REPR: "Cc1onc(-c2ccccc2Cl)c1C(=O)NC(=S)Nc1ccc(C(C)C)cc1"
  GROUP: 1.0

Query: Decide: activity change, less the hit threshold of COc1ccccc1C(=O)Nc1ccc(C(=O)N2CCCC2)cc1 >= -10%?
Response: 1.0

---

molecular target: Potassium voltage-gated channel subfamily KQT member 2 (Rattus norvegicus) (UniProt O88943); assay: KCNQ2 potentiation in CHO cells – cell-based, FluxOR thallium flux, counter-screen for hERG block protector project, confirmation (AID 1942); conditions: FluxOR thallium flux fluorescence, at 10 µM, active compounds read high;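 note: normalized value minus buffer-control mean plus three SD of buffer wells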
In all, about 2,400 compounds went through this assay and about 580 (24%) were called active. Only a sample is shown.
READOUT LABEL: activity change, less the hit threshold (%)
Field: numeric (%). Do not append units.

- MOLECULE: "CSC1=C(C#N)C(CC(C)C)C2=C(CCCC2=O)N1 (centres undefined)"
  activity change, less the hit threshold / %: -12.3
- MOLECULE: "O=C(COC(=O)C1C2CC3OC(=O)C1C3C2)Nc1ccc(Cl)cc1 (centres undefined)"
  activity change, less the hit threshold / %: -17.9
- MOLECULE: "Cc1n[nH]c(C)c1CCNC(=O)C1CCC(=O)N(Cc2ccccc2F)C1 (centres undefined)"
  activity change, less the hit threshold / %: -14

Below: the item to evaluate.
Query: // query activity change, less the hit threshold value for entry CCOC(=O)c1ccc(Oc2cc(C)nc(SC)n2)cc1
Response: 11.9

---

target: Potassium voltage-gated channel subfamily KQT member 2 (Rattus norvegicus); assay: KCNQ2 potentiation in CHO cells – cell-based, FluxOR thallium flux, counter-screen for hERG block protector project, confirmation (AID 1942); conditions: FluxOR thallium flux fluorescence, at 10 µM;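 note: normalized value minus buffer-control mean plus three SD of buffer wells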
About 580 (24%) of roughly 2,400 compounds were called active.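 The calls were made as follows: active = activity change at or above the mean plus 3 SD of buffer wells without dofetilide, per plate; inactive = the rest.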 Only a sample is shown.
Respond only with the outcome that fits, drawn from active, inactive

- COMPOUND: "COc1ccc(C(CC(=O)O)NC(=O)C(c2ccccc2)c2ccccc2)cc1 (stereo unspecified)"
  GROUP: "inactive"

Query: Could you check what this test reported for O=C(COc1ccc(Cl)cc1)N1CCN(Cc2ccc3c(c2)OCO3)CC1 ?
Response: inactive

Query: Cc1ccc(NN=Nc2nc3c([nH]2)c(=O)n(C)c(=O)n3C)cc1 ?
Response: inactive

Query: Cc1ccc(O)c(C(=O)CC(=O)c2ccccc2Cl)c1 ?
Response: inactive

Query: CC(=O)Nc1nc2c(F)cccc2s1 ?
Response: inactive

Query: COc1cccc(C(=O)/C=C/Nc2ccc(S(=O)(=O)Nc3cnc4ccccc4n3)cc2)c1 ?
Response: inactive

Query: CCSC(=S)c1c(C)[nH]n(-c2ccccc2)c1=O ?
Response: inactive

---

biological target: Potassium voltage-gated channel subfamily KQT member 2 (Rattus norvegicus); assay: KCNQ2 potentiation in CHO cells – cell-based, FluxOR thallium flux, counter-screen for hERG block protector project, confirmation (AID 1942); settings: FluxOR thallium flux fluorescence, at 10 µM, active compounds read high;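 note: normalized value minus buffer-control mean plus three SD of buffer wells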
In all, about 2,400 compounds went through this assay and about 580 (24%) were called active. Not all results are given here.
READOUT LABEL: activity change, less the hit threshold

# example entries with known answers
- COMPOUND: "Oc1c(Br)cc(Br)cc1C=Nc1ccc2[nH]ncc2c1"
  READOUT LABEL: "activity change, less the hit threshold"
  RESULT: "33% (active)"
- COMPOUND: "CC(=O)Nc1ccccc1NC(=O)C/C(C)=N/NC(=O)c1ccc([N+](=O)[O-])c(Cl)c1"
  READOUT LABEL: "activity change, less the hit threshold"
  RESULT: "-19% (inactive)"
- COMPOUND: "COc1cc(Cl)cc(C(c2c(C(=O)O)[nH]c3ccccc23)c2c(C(=O)O)[nH]c3ccccc23)c1O"
  READOUT LABEL: "activity change, less the hit threshold"
  RESULT: "-20.1% (inactive)"

Query: // query activity change, less the hit threshold value for entry CCC(C)N(C(=O)CSc1nnc(NC(C)C)s1)C1CCS(=O)(=O)C1 (centres undefined)
Response: -15.4% (inactive)

Query: CCCCc1c(C)[nH]c(C(=O)OCC)c1C ?
Response: -19.3% (inactive)

---

Each record here notes measured activity change, less the hit threshold.
target: Potassium voltage-gated channel subfamily KQT member 2 (Rattus norvegicus) (UniProt O88943); assay: KCNQ2 potentiation in CHO cells – cell-based, FluxOR thallium flux, counter-screen for hERG block protector project, confirmation (AID 1942); details: FluxOR thallium flux fluorescence, at 10 µM, active compounds read high;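 note: normalized value minus buffer-control mean plus three SD of buffer wells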
Among all 2,400 compounds or so, about 580 (24%) were called active. A selection follows.

- SMILES REPR: "CCCSC(=S)c1c(C)[nH]n(-c2ccccc2)c1=O"
  RESULT: "49.7% (active)"
- SMILES REPR: "O=C(Nc1ccccc1)N1CCSc2cc(Cl)ccc21"
  RESULT: "-9.1% (inactive)"
- SMILES REPR: "O=[N+]([O-])c1ccc(Nc2ccccc2F)nc1"
  RESULT: "-2.6% (inactive)"
- SMILES REPR: "COc1ccc(C(=O)N2CCN(Cc3ccc4c(c3)OCO4)CC2)cc1[N+](=O)[O-]"
  RESULT: "-19.3% (inactive)"

Query: // query activity change, less the hit threshold value for entry COc1ccc(OCC(=O)NNC(=O)C(=O)Nc2ccc(C)cc2)cc1
Response: -23.7% (inactive)

Query: CCOC(=O)Cc1nc2ccccc2o1 ?
Response: -2.9% (inactive)

Query: COc1ccc(CCNC(=O)c2ccc3c(c2)OCO3)cc1 ?
Response: -18% (inactive)
